Overview of recorded inhibition at 10 µM for various molecules
- System: primary mouse cortical neurons
- Construct: primary cortical neurons, DIV 10
- procedure summary: cells
- Set-up: Protection from NMDA-induced (30 uM, 10 min) neuronal death; Hoechst nuclear morphology by automated microscopy
- conditions: Cortical neurone, 20 h, read-out: % inhibition, inhibition of NMDA-induced cell death (protection score), 30 min pre-treatment
Structures can show the parent of a compound that is named as a salt.
assay endpoint: inhibition at 10 µM (%)

>>> df
                                   molecule       assay_endpoint  value_unit  reported_value
0  CN(C)CC/C=C1/c2ccccc2COc2ccc(CC(=O)O)cc21 [Olopatadine hydrochloride (Opatanol)]  inhibition at 10 µM           %           -8.38
1  Cn1c(CCCC(=O)O)nc2cc(N(CCCl)CCCl)ccc21 [Bendamustine HCL]  inhibition at 10 µM           %            9.61
2  CN(C)CCc1c[nH]c2ccc(C[C@H]3COC(=O)N3)cc12 [Zolmitriptan (Zomig)]  inhibition at 10 µM           %            41.2
3  C[C@H]1C[C@H]2[C@@H]3CCC4=CC(=O)C=C[C@]4(C)[C@H]3C(=O)C[C@]2(C)[C@@]1(O)C(=O)CO  inhibition at 10 µM           %            11.6
4  O[C@@H](CNC[C@H](O)[C@H]1CCc2cc(F)ccc2O1)[C@@H]1CCc2cc(F)ccc2O1  inhibition at 10 µM           %           -2.64
5  O=C1c2c(O)cccc2[C@H]([C@@H]2O[C@H](CO)[C@@H](O)[C@H](O)[C@H]2O)c2cc(CO)cc(O)c21  inhibition at 10 µM           %            0.91
6  CC1=C(CC(=O)O)c2cc(F)ccc2/C1=C\c1ccc([S+](C)[O-])cc1 (stereo not drawn)  inhibition at 10 µM           %           -5.67
7  C=CC1=C(C(=O)O)N2C(=O)[C@@H](NC(=O)/C(=N\O)c3csc(N)n3)[C@H]2SC1  inhibition at 10 µM           %            44.5
8  NC(=O)c1cccnc1 [Nicotinamide (Niacinamide)]  inhibition at 10 µM           %           -2.77

====

Overview of recorded inhibition at 10 µM for various molecules
- System: primary mouse cortical neurons
- Construct: primary cortical neurons, DIV 10
- procedure summary: cells
- Set-up: Protection from NMDA-induced (30 uM, 10 min) neuronal death; Hoechst nuclear morphology by automated microscopy
- conditions: Cortical neurone, 20 h, read-out: % inhibition, inhibition of NMDA-induced cell death (protection score), 30 min pre-treatment
Where a name gives a salt, the structure may show the parent alone.
assay endpoint: inhibition at 10 µM (%)

>>> df
                                    molecule  reported_value
 0  O=c1n(CCCN2CCN(c3cccc(Cl)c3)CC2)nc2ccccn12 [Trazodone hydrochloride (Desyrel)]            -1.4
 1  C#C[C@]1(O)C=C[C@H]2[C@@H]3CCC4=CC(=O)CC[C@@H]4[C@H]3CC[C@@]21CC           -1.48
 2  C[C@@H]1C[C@H]2[C@@H]3CCC4=CC(=O)C=C[C@]4(C)[C@@]3(F)[C@@H](O)C[C@]2(C)[C@@]1(O)C(=O)CO           -9.25
 3  CC1=C(/C=C/C(C)=C/C=C/C(C)=C\C(=O)O)C(C)(C)CCC1            -1.4
 4  N#CC1(c2ccc(NC(=O)c3cccnc3NCc3ccncc3)cc2)CCCC1          -0.459
 5  Cc1cc(C(C)(C)C)c(O)c(C)c1CC1=NCCN1 [Oxymetazoline hydrochloride]           -9.52
 6    COc1ccc(-c2cc(=O)c3c(O)cc(O)cc3o2)cc1O            8.81
 7  CCOC(=O)O[C@]1(C(=O)OCCl)CC[C@H]2[C@@H]3CCC4=CC(=O)C=C[C@]4(C)[C@H]3[C@@H](O)C[C@@]21C [Loteprednol Etabonate]            30.7
 8  CC(=O)OCC(=O)[C@@]1(O)CC[C@H]2[C@@H]3CCC4=CC(=O)C=C[C@]4(C)[C@H]3[C@@H](O)C[C@@]21C [Prednisolone acetate (Omnipred)]           -1.13
 9                     Oc1ccc(OCc2ccccc2)cc1            49.3
10  CCN[C@H]1C[C@H](C)S(=O)(=O)c2sc(S(N)(=O)=O)cc21 [Dorzolamide HCL]          0.0606
11                     COc1ccc(C(C)=O)c(O)c1           -2.06
12       C=CCc1ccc(O)c(-c2ccc(O)c(CC=C)c2)c1           -2.26
13                    Cc1cc(=O)oc2cc(O)ccc12          -0.113
14  CC[C@H](CC[C@@H](C)[C@H]1CC[C@H]2[C@@H]3CC=C4C[C@@H](O)CC[C@]4(C)[C@H]3CC[C@]12C)C(C)C          -0.368
15  CO/N=C(\C(=O)N[C@@H]1C(=O)N2C(C(=O)OCOC(=O)C(C)(C)C)=C(/C=C\c3scnc3C)CS[C@H]12)c1csc(N)n1            8.16
